target: Thyrotropin-releasing hormone receptor (Homo sapiens); assay: qHTS for Small Molecule Agonists and Allosteric Enhancers of Human TRH Receptor: Validation Screen for Agonists (AID 493127); settings: TRH receptor agonist cell assay; at 2 µM; hits give high values;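 also: intracellular calcium rise by fluo-8 fluorescence before TRH EC20 addition; 0% is about no effect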
Calls of active or inactive are those of the source.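 The calls were made as follows: active = calcium activation more than 3 SD above the typical response in the agonist read; inactive = the rest.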
Can you tell me activation for the items I'm about to list?

q: Requested read-out: activation. Entry: CCC(C)N(C)C(=O)c1cc2ccccc2c(-c2ccccc2Cl)n1 (stereo not drawn)
a: -6.5% (inactive)

q: Could you share which activation value was measured for O=NN(CCCl)C(=O)NCCCl ?
a: 0.438% (inactive)

q: Data request, read-out activation, for O=C1CCC(N2C(=O)c3ccccc3C2=O)C(=O)N1 (stereo not drawn)
a: 0.188% (inactive)

q: Please report the recorded activation for Cc1ccccc1C(OCCN(C)C)c1ccccc1 (stereo not drawn) .
a: 0.625% (inactive)

q: Given the compound C1COC(NC(C2CC2)C2CC2)=N1 , what is its reported activation?
a: -0.312% (inactive)

q: Query (compound): CCCCNc1cc(C(=O)O)cc(S(N)(=O)=O)c1Oc1ccccc1 ; field requested: activation
a: 1.31% (inactive)

q: # get_value(readout='activation', item= Cc1[nH]c(=O)c(C#N)cc1-c1ccc2nccn2c1 )
a: 0.25% (inactive)

q: Reported activation, compound CC(C)NCC(O)COc1ccc(COCCOC(C)C)cc1 (stereo not drawn) : ____
a: -0.25% (inactive)

q: Item NCCc1ccc(O)c(O)c1 has what recorded activation?
a: 1% (inactive)

q: Can you look up the measured activation of CC(C)C[C@H](NC(=O)[C@@H](O)[C@H](N)Cc1ccccc1)C(=O)O for me?
a: 0.938% (inactive)

q: # lookup: activation of Cc1[nH]c(=O)c(C#N)cc1-c1ccncc1
a: 0.562% (inactive)

q: Recorded activation for NC(=O)c1cnccn1 , please?
a: 0.688% (inactive)

q: What value of activation has been reported for the following compound? CCN(CC)CCCC(C)Nc1ccnc2cc(Cl)ccc12 (stereo not drawn)
a: 0.875% (inactive)

q: Suppose we examine the compound CCCC(CCC)C(=O)O ; what activation value has been reported?
a: 0.688% (inactive)

q: For the compound NS(=O)(=O)c1cc2c(cc1Cl)NC=NS2(=O)=O , what activation is on record?
a: 1.12% (inactive)

q: Reported activation for CCOC(=O)C1=C[C@]2(CC)CCCN3CCc4c(n1c1ccccc41)[C@@H]32 : what is it?
a: 0.0625% (inactive)

q: Sample O=C1CCc2cc(OCCCCc3nnnn3C3CCCCC3)ccc2N1 — what was its activation?
a: 3.38% (inactive)

q: Would you mind telling me what activation value was observed for Cc1cnc(NC(=O)C2=C(O)c3ccccc3S(=O)(=O)N2C)s1 ?
a: 0.812% (inactive)

====

experiment: qHTS of pediatric cancer cell lines to identify multiple opportunities for drug repurposing: Primary screen for NB-EBc1 cells (AID 1347095); conditions: NB-EBc1 neuroblastoma viability, CellTiter-Glo luminescence, 48 h; series mostly up to 46 µM; also: potency is read from the fitted curve at half-maximal effect
Records with an inconclusive call do not appear. Active and inactive are the calls of the source. Calls follow the shape of the dose curve; as a rule, active = well fitted cell-killing curve with a large enough effect; inconclusive = small, poorly fitted or top-dose-only effect; inactive = no such curve, though single readings can be large or run the other way.
MEASUREMENT LABEL: Potency

Solved entries:
compound="NC(=O)C1CCCc2c1[nH]c1ccc(Cl)cc21 (stereo not drawn)" result=inactive
compound=O=C(c1cc(Cc2n[nH]c(=O)c3ccccc23)ccc1F)N1CCN(C(=O)C2CC2)CC1 result="10.5 µM (active)"
compound=COc1ccc(-c2c(-c3ccc(O)cc3O)n[nH]c2C)cc1 result="38.2 µM (active)"
compound="OC(CCN1CCCCC1)(c1ccccc1)C1CC2C=CC1C2 (stereo not drawn)" result=inactive
compound=N#CC[C@H](C1CCCC1)n1cc(-c2ncnc3[nH]ccc23)cn1 result=inactive
compound=Cc1cc(Nc2nc(N[C@@H](C)c3ncc(F)cn3)ncc2Cl)n[nH]1 result="18.7 µM (active)"
compound=O=C(O)CCc1ccc(NCc2cccc(Oc3ccccc3)c2)cc1 result=inactive

Moving on to the next compound.
q: For CCn1c(-c2nonc2N)nc2cnc(Oc3cccc(NC(=O)c4ccc(OCCN5CCOCC5)cc4)c3)cc21 , what is its reported Potency?
a: inactive
